Data credit: patent US20210355194A1

// reported screening ELISA (Avg), fold over background for each item listed
# Target Or System: SARS-CoV-2 S1 (subunit 1) protein (SARS-CoV-2, UniProt P0DTC2 16-685)
# Experiment Summary: phage ELISA
All answers are understood in fold over background, so give the number only.

INSERT INTO results (binder, unit_text, experimental_value) VALUES
  ('variant 2-5 (antibody, V domains shown) VH: EVQLLESGGGLVQPGGSLRLSCAASGFTFSDFAMAWVRQAPGKGLEWVSAISGSGDITYYADSVKGRFTISRDNSKNTLYLQMNSLRAEDTAVYYCAREADGLHSPWHFDLWGQGTLVTVSS VL: DIQMTQSPSSLSASVGDRVTITCRASQSIHTYLNWYQQKPGKAPKLLIYAASALASGVPSRFSGSGSGTDFTLTISSLQPEDFATYYCQQSYSAPPYTFGQGTKVEIK', 'fold over background', 30.8),
  ('variant 2-2 (antibody, V domains shown) VH: EVQLLESGGGLVQPGGSLRLSCAASGFTFSRHAMNWVRQAPGKGLEWVSGISGSGDETYYADSVKGRFTISRDNSKNTLYLQMNSLRAEDTAVYYCARDLPASYYDSSGYYWHNGMDVWGQGTLVTVSS VL: DIQMTQSPSSLSASVGDRVTITCRASQTINTYLNWYQQKPGKAPKLLIYSASTLQSGVPSRFSGSGSGTDFTLTISSLQPEDFATYYCQQSYSTFTFGQGTKVEIK', 'fold over background', 23.4);

Consider the record given below.
Prompt: // returns reported screening ELISA (Avg), fold over background for input variant 2-8 (antibody, V domains shown) VH: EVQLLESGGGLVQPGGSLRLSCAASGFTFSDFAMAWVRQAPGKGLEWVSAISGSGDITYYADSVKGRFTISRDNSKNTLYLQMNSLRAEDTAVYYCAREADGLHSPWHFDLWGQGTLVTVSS VL: DIQMTQSPSSLSASVGDRVTITCRASQSIDTYLNWYQQKPGKAPKLLIYAASALASGVPSRFSGSGSGTDFTLTISSLQPEDFATYYCQQSYSAPPYTFGQGTKVEIK
Completion: 32.4
